calcium mobilization activity of CXCR-3/300-19 cells, dosage 3.7 µM for assorted binders
- targetDesc: T1, CXCR3 receptor (UniProt P49682 1-368, limits assumed)
- T1 sequence (looked up): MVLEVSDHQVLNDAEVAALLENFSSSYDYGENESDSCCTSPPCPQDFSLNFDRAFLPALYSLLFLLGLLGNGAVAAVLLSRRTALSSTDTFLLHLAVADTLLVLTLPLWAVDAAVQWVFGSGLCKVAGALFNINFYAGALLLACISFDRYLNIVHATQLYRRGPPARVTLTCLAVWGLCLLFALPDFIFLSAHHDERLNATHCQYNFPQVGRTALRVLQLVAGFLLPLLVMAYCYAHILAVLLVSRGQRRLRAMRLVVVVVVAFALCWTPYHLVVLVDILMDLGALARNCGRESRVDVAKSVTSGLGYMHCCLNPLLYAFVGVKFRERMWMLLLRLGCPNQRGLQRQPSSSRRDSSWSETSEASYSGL
- testName: cell-based or functional assay
Non-standard residues stand in square brackets, D forms with d. No end group written: not given here. Aun = NCCCCCCCCCCC(=O)O
# respond with the number and nothing more

VPLSRTVRSTSISIS[Aun]ESKAIKNLLEAVSK [[Ser^9,Ser^11,Glu^67]-IP-10-(1-15)-[linker]-IP-10-(58-71)] ... 15.4
Ac-VPLSRTVRCTCISISN[Aun]LKAVSKEMSKRSP (cysteine pairing not given here) [Acetylated-IP-10-(1-16)-[linker]-IP-10-(66-78)] ... 12.7
Ac-VPLSRTVRATFISISN[Aun]LKAVSKEMSKRSP [Acetylated-[Ala^9,Phe^11]-IP-10-(1-16)-[linker]-IP-10-(66-78)] ... 13.8
VPLSRTVRSTSISIS[Aun]ESKAIENLLKAVSK [[Ser^9,Ser^11,Glu^63]-IP-10-(1-15)-[linker]-IP-10-(58-71)] ... 18.5

Attention now turns to another entry.
Q: For VPLSRTPRCTCISIS[Aun]ESKAIKNLLKAVSK (cysteine pairing not given here) [[Pro^7]-IP-10-(1-15)-[linker]-IP-10-(58-71)] , what is its reported calcium mobilization activity of CXCR-3/300-19 cells, dosage 3.7 µM?
Ans: 14
